- method summary: Potentiometric titration, acid dissociation constants
- Format: physicochemical
- condition: aqueous 2.0 M (Na+/H+)ClO4 electrolyte solution, I = 2.0 M (Na+/H+)ClO4 at 20.0 °C; read-out: pKa H7L species
measured property: pKa
Numbers only.

Query: May I ask what pKa has been recorded for O=C(O)CN(CCN(CCN(CC(=O)O)CC(=O)O)CC(=O)O)CCN(CC(=O)O)CC(=O)O ?
Reply: 1.86

====

- method summary: Potentiometric titration, acid dissociation constants
- Format: physicochemical
- condition: aqueous 2.0 M (Na+/H+)ClO4 electrolyte solution, I = 2.0 M (Na+/H+)ClO4 at 20.0 °C; read-out: pKa H2L species
Hi there, I'd appreciate the recorded pKa for every entry that follows.
Answers are plain numbers.

Worked cases, pKa given:
Query: May I ask what pKa has been recorded for O=C(O)CN(CCN(CC(=O)O)CC(=O)O)CC(=O)O [H4edta] ?
Reply: 6.45

Query: Follow-up entry: O=C(O)CN(CCN(CC(=O)O)Cc1cccc(C(=O)O)n1)Cc1cccc(C(=O)O)n1 [H4octapa]
Reply: 5.57

Query: Follow-up entry: O=C(O)CN(CCN(CCN(CC(=O)O)CC(=O)O)CC(=O)O)CCN(CC(=O)O)CC(=O)O [H6ttha]
Reply: 8.67

Next, consider the following compound.
Query: May I ask what pKa has been recorded for O=C(O)CN(CCN(CC(=O)O)CC(=O)O)CCN(CC(=O)O)CC(=O)O [H5dtpa] ?
Reply: 8.31
